For each entry below, report its Solubility in organic solvent at 25° C., THN value.
# Test summary: Measurement of solubility in organic solvents at 25° C.
# Type: physicochemical
# Condition notes: tetrahydronaphthalene (THN), 25° C., visual inspection
Return type: number; implicit unit mass %.

Challenge: Which measured Solubility in organic solvent at 25° C., THN value corresponds to CCCCCCCCc1ccc2sc3c4cc5cc(-c6ccccc6)ccc5cc4sc3c2c1 ?
Response given: 0.4

Challenge: Report Solubility in organic solvent at 25° C., THN for CCCCc1ccc2sc3c4cc5cc(-c6ccccc6)ccc5cc4sc3c2c1 please.
Response given: 0.5

Challenge: Given the compound CCCCCCCCCCc1ccc2cc3sc4c5cc(-c6ccccc6)ccc5sc4c3cc2c1 , what is its reported Solubility in organic solvent at 25° C., THN?
Response given: 0.3

Challenge: If you can, please state the reported Solubility in organic solvent at 25° C., THN value of CCCCCCc1ccc2cc3sc4c5cc(-c6ccc(CC)cc6)ccc5sc4c3cc2c1 .
Response given: 1.4

###

# Test summary: Differential scanning calorimetry (transition point, heat resistance)
# Type: physicochemical
# Condition notes: DSC endothermic peak indicating phase transition; powder in aluminum pan heated up to 550° C.
Provide the reported Peak top temperature of each item.
State the answer as a number, implicitly in °C.

Challenge: Give the measured Peak top temperature of CCCCCCCCc1ccc2sc3c4cc5cc(-c6ccccc6)ccc5cc4sc3c2c1 [Organic compound 5] .
Response given: 186

Challenge: Fill in the blank: the reported Peak top temperature of CCCCCCCCCCc1ccc2cc3sc4c5cc(-c6ccccc6)ccc5sc4c3cc2c1 [Organic compound 6] is ____.
Response given: 185

Challenge: Which Peak top temperature value is on record for CCCCCc1ccc(-c2ccc3sc4c5cc6cc(-c7ccccc7)ccc6cc5sc4c3c2)cc1 [Organic compound 9] ?
Response given: 244

Challenge: Give the measured Peak top temperature of CCCCc1ccc2sc3c4cc5cc(-c6ccccc6)ccc5cc4sc3c2c1 [Organic compound 4] .
Response given: 218

Challenge: I have this molecule here, CCCCCCc1ccc2cc3sc4c5cc(-c6ccc(CC)cc6)ccc5sc4c3cc2c1 [Organic compound 8] , and I need its recorded Peak top temperature.
Response given: 229

###

Provide the recorded Solubility in organic solvent at 25° C., toluene for the entries that follow.
# Test summary: Measurement of solubility in organic solvents at 25° C.
# Format: physicochemical
# Condition notes: toluene, 25° C., visual inspection
Please respond with the number in mass % and leave the unit unwritten.

Challenge: Please report the recorded Solubility in organic solvent at 25° C., toluene for CCCCCCCCc1ccc2sc3c4cc5cc(-c6ccccc6)ccc5cc4sc3c2c1 .
Response given: 0.4

Challenge: Field request: Solubility in organic solvent at 25° C., toluene | item: CCCCc1ccc2sc3c4cc5cc(-c6ccccc6)ccc5cc4sc3c2c1
Response given: 0.5

Challenge: Which Solubility in organic solvent at 25° C., toluene is reported for this compound? CCCCCCc1ccc2cc3sc4c5cc(-c6ccc(CC)cc6)ccc5sc4c3cc2c1
Response given: 0.9

Challenge: Returns the measured Solubility in organic solvent at 25° C., toluene for the input compound. Input: CCCCCCCCCCc1ccc2cc3sc4c5cc(-c6ccccc6)ccc5sc4c3cc2c1
Response given: 0.2

###

Provide the recorded Solubility in organic solvent at 25° C., chloroform for the entries that follow.
# Test summary: Measurement of solubility in organic solvents at 25° C.
# Assay type: physicochemical
# Condition notes: chloroform, 25° C., visual inspection
Express your answer in mass %, writing the number without its unit.

Challenge: Which measured Solubility in organic solvent at 25° C., chloroform value corresponds to CCCCCCCCCCc1ccc2cc3sc4c5cc(-c6ccccc6)ccc5sc4c3cc2c1 ?
Response given: 0.3

Challenge: What does the data say about its Solubility in organic solvent at 25° C., chloroform? Entry: CCCCCCCCc1ccc2sc3c4cc5cc(-c6ccccc6)ccc5cc4sc3c2c1
Response given: 0.4

Challenge: Return reported Solubility in organic solvent at 25° C., chloroform; argument: CCCCc1ccc2sc3c4cc5cc(-c6ccccc6)ccc5cc4sc3c2c1
Response given: 0.5
